Value source: the supplement of paper PMC10567573

B1: FBXO3 (parent)
chain: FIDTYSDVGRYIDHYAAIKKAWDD

- Variants of: B1
- Assay Remarks: protein stability index of a GFP-peptide fusion (GPS, HEK-293T) (PSI 1-6); higher = more stable;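 note: lentivirally expressed fusions sorted by FACS into six bins by GFP to DsRed ratio, PSI derived from sequencing read proportions per bin multiplied by bin number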
- Condition Summary: c terminus: a fixed tail appended
Record MET whenever protein stability index is at 2 or higher; record NOT MET when lower.

mutation=I12M label="NOT MET"
mutation=D7F label=MET
mutation=G9L label=MET
mutation=D13N label=MET
mutation=D24W label=MET
mutation=Y15R label=MET
mutation=I2Y label=MET
mutation=D13P label="NOT MET"
mutation=D23I label=MET
mutation=D13K label=MET
mutation=S6Y label="NOT MET"
mutation=Y5K label=MET
mutation=T4G label=MET
mutation=A17M label="NOT MET"
mutation=D13Y label=MET
mutation=K20S label="NOT MET"
mutation=Y15D label=MET
mutation=D23K label="NOT MET"
mutation=D7N label="NOT MET"
mutation=K19I label=MET
mutation=F1E label=MET
mutation=V8F label="NOT MET"
mutation=D24L label="NOT MET"
mutation=K19G label="NOT MET"
mutation=W22Y label=MET
mutation=A16D label="NOT MET"
mutation=I18R label="NOT MET"
mutation=I2N label=MET
mutation=Y15S label="NOT MET"
mutation=W22N label="NOT MET"
mutation=S6N label="NOT MET"
mutation=I2V label=MET
mutation=I18Y label="NOT MET"
mutation=D24Q label=MET
mutation=A21E label="NOT MET"
mutation=I2M label=MET
mutation=A17E label="NOT MET"
mutation=D24E label=MET
mutation=T4R label=MET
mutation=D7T label="NOT MET"
mutation=A16T label="NOT MET"
mutation=Y11F label="NOT MET"
mutation=F1C label=MET
mutation=Y11K label=MET
mutation=Y5E label=MET
mutation=H14M label="NOT MET"
mutation=G9W label="NOT MET"
mutation=I12N label="NOT MET"
mutation=D23E label=MET
mutation=D24N label="NOT MET"
